Field: clearance. Provide a value for each of the compounds that follow.
- Tested on: Liver microsomes
- run description: Intrinsic clearance in human liver microsomes assessed per mg of protein
- Format: ADME, Microsome

Cc1nc(NC(C2CC2)C2CC2)c2nc(C)n(-c3ccc(C#N)cc3)c2n1 16 µL/min/mg

For each listed entry, give its clearance.
1. COc1ccc(-n2cnc3c(NC(C4CC4)C4CC4)nc(C)nc32)c(C)c1
2. Cc1nc(NC(C2CC2)C2CC2)c2nc(C)n(-c3ccc(Cl)cc3)c2n1
3. CCCN(CCOC)c1nc(C)nc2c1c(C)nn2-c1ccc(OC)cc1C
4. COc1cc(OC(F)F)ccc1-n1c(C)nc2c(NC(C3CC3)C3CC3)nc(C)nc21
5. Cc1nc(NC(C2CC2)C2CC2)c2nc(C)n(-c3ccc(OC(F)F)cc3)c2n1
6. Cc1nc(NC(C2CC2)C2CC2)c2nc(C)n(-c3ccc(S(C)(=O)=O)cc3)c2n1

1: 21 µL/min/mg; 2: 28 µL/min/mg; 3: 172 µL/min/mg; 4: 19 µL/min/mg; 5: 15 µL/min/mg; 6: < 9 µL/min/mg

Give me clearance for each of these compounds, listed below.
1. CCOc1ccc(-n2c(C)nc3c(NC(C4CC4)C4CC4)nc(C)nc32)cc1
2. COc1ccc(-n2c(C)nc3c(NC(C4CC4)C4CC4)nc(C)nc32)c(C)c1
3. Cc1nc(NC(C2CC2)C2CC2)c2nc(C)n(-c3ccc(OC(F)F)cc3Cl)c2n1

1: 16 µL/min/mg; 2: 10 µL/min/mg; 3: 18 µL/min/mg

----------
- tgt: Corticotropin-releasing factor receptor 1 (Homo sapiens, UniProt P34998)
- Sequence (P34998 whole entry): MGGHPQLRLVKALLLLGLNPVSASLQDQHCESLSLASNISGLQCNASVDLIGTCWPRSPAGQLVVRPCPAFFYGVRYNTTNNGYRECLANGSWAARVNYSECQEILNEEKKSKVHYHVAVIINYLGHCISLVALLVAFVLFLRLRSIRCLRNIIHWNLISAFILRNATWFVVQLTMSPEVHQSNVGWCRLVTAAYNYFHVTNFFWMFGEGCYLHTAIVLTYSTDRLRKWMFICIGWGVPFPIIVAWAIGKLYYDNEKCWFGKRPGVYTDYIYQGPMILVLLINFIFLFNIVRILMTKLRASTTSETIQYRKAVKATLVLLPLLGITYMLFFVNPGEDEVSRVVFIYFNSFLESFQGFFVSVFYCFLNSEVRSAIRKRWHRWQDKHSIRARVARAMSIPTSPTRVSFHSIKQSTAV
- run description: Binding affinity to recombinant human CRF1 receptor expressed in CHO cells
test readout: pKd
Answers are plain numbers, as −log10 of the molar value.

COc1cc(OC(F)F)ccc1-n1c(C)nc2c(NC(C3CC3)C3CC3)nc(C)nc21 9.54
CCCN(CCOC)c1nc(C)nc2c1c(C)nn2-c1ccc(OC)cc1C 7.85
Cc1nc(NC(C2CC2)C2CC2)c2nc(C)n(-c3ccc(OC(F)F)cc3Cl)c2n1 9.43
Cc1nc(NC(C2CC2)C2CC2)c2nc(C)n(-c3ccc(OC(F)F)cc3)c2n1 8.52
CCC(CC)Nc1cc(C)nc2c(-c3ccc(OC)cc3C)c(C)nn12 9.55

Reported pKd, compound COc1ccc(-n2c(C)nc3c(NC(C4CC4)C4CC4)nc(C)nc32)cc1 : ____
7.92

----------
- run description: Clearance in rat at 0.1 mg/kg
- Type: ADME, organism-based
- Design: dose 0.1 mg/kg
- particulars: in vivo
test readout: clearance

For orientation, consider the following solved cases.
COc1ccc(-n2c(C)nc3c(NC(C4CC4)C4CC4)nc(C)nc32)cc1 4 mL/min/kg
Cc1nc(NC(C2CC2)C2CC2)c2nc(C)n(-c3ccc(OC(F)F)cc3Cl)c2n1 8 mL/min/kg

Batch request: clearance for each of the following compounds.
1. COc1cc(OC(F)F)ccc1-n1c(C)nc2c(NC(C3CC3)C3CC3)nc(C)nc21
2. Cc1nc(NC(C2CC2)C2CC2)c2nc(C)n(-c3ccc(OC(F)F)cc3)c2n1

9 mL/min/kg
3 mL/min/kg

----------
- tgt: Corticotropin-releasing factor receptor 1 (Homo sapiens)
- particulars: CHO
- Description: Antagonist activity at recombinant human CRF1 receptor expressed in CHO cells assessed as dissociation half life
test readout: log10(T1/2) (log10 of the value in h)
Each number you see is log10 of T1/2, and the unit inside the log is h.

Cc1nc(NC(C2CC2)C2CC2)c2nc(C)n(-c3ccc(OC(F)F)cc3)c2n1 0.00
COc1cc(OC(F)F)ccc1-n1c(C)nc2c(NC(C3CC3)C3CC3)nc(C)nc21 1.03
CCCN(CCOC)c1nc(C)nc2c1c(C)nn2-c1ccc(OC)cc1C -0.52

Would you be so kind as to report log10(T1/2) for each listed record?
1. COc1ccc(-n2c(C)nc3c(NC(C4CC4)C4CC4)nc(C)nc32)cc1
2. CCC(CC)Nc1cc(C)nc2c(-c3ccc(OC)cc3C)c(C)nn12
3. Cc1nc(NC(C2CC2)C2CC2)c2nc(C)n(-c3ccc(OC(F)F)cc3Cl)c2n1

-0.30
0.74
0.79

Field request: log10(T1/2) | item: CCCN(CCC)c1cc(C)nc2c(-c3cnc(N(C)C)cc3C)c(C)nn12
1.11

----------
Can you tell me Vd for the items I'm about to list?
- run description: Volume of distribution at steady state in rat at 0.1 mg/kg
- Type: ADME, organism-based
- Set-up: dose 0.1 mg/kg
- particulars: in vivo, read-out: Vdss
One number for each entry, in L/kg.

Working through the 4 compounds below one at a time, give Vd for each.
1. Cc1nc(NC(C2CC2)C2CC2)c2nc(C)n(-c3ccc(OC(F)F)cc3Cl)c2n1
2. Cc1nc(NC(C2CC2)C2CC2)c2nc(C)n(-c3ccc(OC(F)F)cc3)c2n1
3. COc1ccc(-n2c(C)nc3c(NC(C4CC4)C4CC4)nc(C)nc32)cc1
4. COc1cc(OC(F)F)ccc1-n1c(C)nc2c(NC(C3CC3)C3CC3)nc(C)nc21

1: 4.5; 2: 2; 3: 2; 4: 8.2

----------
- tgt: Corticotropin-releasing factor receptor 1 (Homo sapiens)
- run description: Antagonist activity at recombinant human CRF1 receptor expressed in CHO cells assessed as inhibition of CRF-induced cAMP formation
test readout: Ki (µM)
Give bare numbers, in µM.

Solved entries (count: 5):
molecule	test readout	numeric result
Cc1nc(NC(C2CC2)C2CC2)c2nc(C)n(-c3ccc(OC(F)F)cc3)c2n1	Ki	0.005
COc1ccc(-n2c(CC3CC3)nc3c(NC(C4CC4)C4CC4)nc(C)nc32)cc1	Ki	0.308
COc1ccc(-n2c(C3CCCO3)nc3c(NC(C4CC4)C4CC4)nc(C)nc32)cc1 (racemic)	Ki	0.867
Cc1nc(NC(C2CC2)C2CC2)c2nc(C)n(-c3ccc(F)cc3)c2n1	Ki	0.091
COc1ccc(-n2c(CC(C)C)nc3c(NC(C4CC4)C4CC4)nc(C)nc32)cc1	Ki	0.607

Record Ki per entry; entries follow.
1. Cc1nc(NC(C2CC2)C2CC2)c2nc(C)n(-c3ccc(OC(F)(F)F)cc3)c2n1
2. Cc1nc(NC(C2CC2)C2CC2)c2nc(C)n(-c3ccc(S(C)(=O)=O)cc3)c2n1
3. COc1cc(OC(F)F)ccc1-n1c(C)nc2c(NC(C3CC3)C3CC3)nc(C)nc21
4. COc1ccc(-n2cnc3c(NC(C4CC4)C4CC4)nc(C)nc32)c(C)c1
5. COc1ccc(-n2c(C3CC(F)(F)C3)nc3c(NC(C4CC4)C4CC4)nc(C)nc32)cc1
6. COc1ccc(-n2ncc3c(NC(C4CC4)C4CC4)nc(C)nc32)c(C)c1

1. 0.009
2. 0.14
3. 0.000291
4. 0.047
5. 0.261
6. 0.032

Please state Ki for every molecule in the list that follows.
1. Cc1nc(NC(C2CC2)C2CC2)c2nc(C)n(-c3ccc(OC(F)F)cc3Cl)c2n1
2. Cc1nc(NC(C2CC2)C2CC2)c2nc(C)n(-c3ccc(OC(F)F)cc3F)c2n1

0.000373
0.007

Hey, can you go through the list below and give me Ki for every item?
1. Cc1nc(NC(C2CC2)C2CC2)c2nc(C)n(-c3ccc(Cl)cc3)c2n1
2. CCC(CC)Nc1cc(C)nc2c(-c3ccc(OC)cc3C)c(C)nn12
3. COc1ccc(-n2c(C)nc3c(NC(C4CC4)C4CC4)nc(C)nc32)cc1

[0.011, 0.0015, 0.019]

----------
- run description: Half life in rat at 0.1 mg/kg
- Type: ADME, organism-based
- Design: dose 0.1 mg/kg
- particulars: in vivo
For each record, write down the corresponding half-life.
One number for each entry, in h.

Solved cases below.
Cc1nc(NC(C2CC2)C2CC2)c2nc(C)n(-c3ccc(OC(F)F)cc3)c2n1 11
COc1ccc(-n2c(C)nc3c(NC(C4CC4)C4CC4)nc(C)nc32)cc1 2.7

Hi there! I need half-life for each item below, if you can.
1. COc1cc(OC(F)F)ccc1-n1c(C)nc2c(NC(C3CC3)C3CC3)nc(C)nc21
2. Cc1nc(NC(C2CC2)C2CC2)c2nc(C)n(-c3ccc(OC(F)F)cc3Cl)c2n1

[10, 6.4]

Reference for the values: ChEMBL document CHEMBL1833795
